Assay: binders of probe aFST on microarray, primary screen, stem cell growth factor project, biochemical, small-molecule microarray, fluorescence 635/667 (AID 1086);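 further: score merges 667 nm fluorescence with signal-to-noise of each printed compound spot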
Conditions: higher = more signal
attribute-measured: composite z-score

> print(dat)
                                   compound  readout.number
1  CCOC(=O)CCN1C(=O)[C@H]2[C@H]3[C@H](O)[C@H](O)CC(=NNC(=O)OCc4ccccc4)[C@H]3CC[C@H]2C1=O           0.138
2  COC(=O)[C@H](C)NC(=O)CC=C[C@@H](C)[C@@H]1C=C[C@H](O)[C@@H](CO)O1           0.258
3  Cc1ccc2[nH]c3nc(CCCn4ccnc4-c4ccccc4)nnc3c2c1            0.26
4  COC(=O)[C@@H]1CC[C@H](C)[C@@H](c2ccc(Br)cc2)N1C[C@@H](O)CN=[N+]=[N-]          -0.139
5  CC(CCN1CCCc2nc(C)c(C)cc21)=NO[C@@H](C)c1cn([C@H](CO)Cc2ccccc2)nn1             0.4
6  C[C@]12CCC3c4ccc(OCC5CO5)cc4CCC3C1CC[C@@H]2O (some centres undefined)           0.473
7  CO[C@@H]1COC(=O)CC=C[C@H](C)[C@H](OC)COC(=O)[C@@H]2CCCN2C(=O)CC=C[C@H]1C          0.0991
8  COC(=O)CC=C[C@@H](C)[C@@H](C=NOC[C@@H](O)COCc1ccco1)OC          -0.466
9  CC(CCN1CCCCc2nc(C)c(C)cc21)=NO[C@@H](C)c1cc(-c2c(C)cc(C)cc2C)no1          -0.689
